Molecular target: T1, recombinant soluble human OX40 ECD (residues 1-216) (human, UniProt P43489 29-216)
T1 construct: Purchased from Creative Biomart and further purified by gel filtration; also called recombinant extracellular domain of human OX40
T1 sequence: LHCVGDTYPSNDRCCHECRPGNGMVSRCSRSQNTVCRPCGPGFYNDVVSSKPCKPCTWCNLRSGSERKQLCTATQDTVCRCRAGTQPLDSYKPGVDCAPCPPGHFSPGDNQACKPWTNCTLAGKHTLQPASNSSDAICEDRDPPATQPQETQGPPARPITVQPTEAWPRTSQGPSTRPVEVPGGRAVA
Experiment: SPR (Biacore T200, 25 °C), antibody captured by anti-Fc, OX40 ECD as analyte
Method: The binding kinetics of an anti-OX40 antibody to recombinant soluble OX40 ECD (extracellular domain) were determined by surface plasmon resonance-based measurements made on a Biacore T200 instrument (GE Healthcare) at 25° C. using an anti-Fc capture assay approach. […]
Reported koff by item:
Supply the numeric figure in s⁻¹, leaving out any unit text.

// worked examples, koff included
BINDER	UNIT_NAME	koff
Hu3739 (antibody, V domains shown, Humanized antibody; also called Hu3739 VH.1b / Hu3739 VL.1b) VH: EVQLVQSGAEVKKPGSSVKVSCKASGFNIKDTYMHWVRQAPGQGLEWIGRIDPANGNTKYDPKFQGRATITADTSTNTAYMELSSLRSEDTAVYYCARGGPAWFVYWGQGTLVTVSS VL: DIQMTQSPSSLSASVGDRVTITCRASQDISNYLNWYQQKPGKAPKLLIYYTSRLRSGLPSRFSGSGSGTDYTLTISSLQPEDFATYYCQQGNTLPWTFGGGTKVEIKR	s⁻¹	0.016
18D8 (antibody, human IgG1, V domains shown, also called literature anti-OX40 antibody 18D8) VH: EVQLVESGGGLVQPGRLSRLSCAASGFTFDDYAMHWVRQAPGKGLEWVSGISWNSGSIGYADSVKGRFTISRENAKNSLYLQMNSLRAEDTALYYCAKDQSTADYYFYYGMDVWGQGTTVTVSS VL: EIVVTQSPATLSLSPGERATLSCRASQSVSSYLAWYQQKPGQAPRLLIYDASNRATGIPARFSGSGSGTDFTLTISSLEPEDFAVYYCQQRSNWPTFGQGTKVEIK	s⁻¹	0.11
Hu3738 (antibody, V domains shown, Humanized antibody; also called exemplary anti-OX40 antibody Hu3738; Hu3738 VH.1b / Hu3738 VL.1) VH: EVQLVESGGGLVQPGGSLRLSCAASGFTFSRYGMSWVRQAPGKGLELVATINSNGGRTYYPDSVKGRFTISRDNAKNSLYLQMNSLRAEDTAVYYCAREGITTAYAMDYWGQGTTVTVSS VL: DIVMTQSPDSLAVSLGERATINCKASQSVDYDGDSYMHWYQQKPGQPPKLLIYAASILESGVPDRFSGSGSGTDFTLTISSLQAEDVAVYYCQQSNEDPRTFGGGTKVEIKR	s⁻¹	0.042

Note: attention shifts to another entry.
Input: Give recorded koff. Hu3741 (antibody, V domains shown, Humanized antibody; also called Hu3741 VH.2b / Hu3741 VL.1c) VH: EVQLVESGGGLVQPGGSLRLSCAVSGFSLTSYGVHWVRQAPGKGLEWLGVIWSGGSTDYNAAFISRLTISKDNSKSTVYLQMNSLRAEDTAVYYCAREEFDYWGQGTTVTVSS VL: DIQMTQSPSSLSASVGDRVTITCRASQDISNYLNWFQQKPGKAPKLLIYYTSRLHSGVPSRFSGSGSGTDYTLTISSLQPEDFATYYCQQGYTLPPTFGGGTKVEIKR
Output: 0.31
